Test system: HCC 2998
Test: NCI tumour cell line growth inhibition, 48 h
Activity calls are given as the source filed them. Cut-off read from the data, not from the text of the source: active = GI50 up to about 1.1 µM and inactive = higher.
What GI50 was measured for each of the following?

Q: Which GI50 reading was recorded for the molecule C=C(C)[C@@H](O)[C@H](O)C[C@H](C)C1CC[C@]2(C)C1=CC[C@@H]1[C@@]3(C)CC[C@@H](OC(C)=O)C(C)(C)[C@@H]3C[C@@H](OC3OC(COC(C)=O)C(O)C(O)C3O)[C@]12C (some centres undefined) ?
Ans: 0.354 µM (active)

Q: Using the record for CC(C)=CCN1CC(C)C(=O)Nc2cc(Cl)ccc21 (centres undefined) , report its GI50.
Ans: 28.5 µM (inactive)

Q: State the recorded GI50 for this entry: "CC(=O)/N=C1\N/C(=C\c2ccc(Cl)cc2)C(=O)N1/C=C1\C(=O)Oc2ccccc2C1=O"
Ans: > 100 µM (inactive)

Q: Look up GI50: "CCN(CC)C(=O)Cc1[nH][nH]c(=O)c1C(=O)N(CC)CC"
Ans: > 100 µM (inactive)
